Source of measurements: patent EP2623495B1

protocol details: In vivo penetration through the skin of intact hairless mice, plasma levels by HPLC
stated conditions: topical application, hairless mice
measure name: difference in peak plasma levels, prodrugs versus parent drugs

test smiles: CCN(CC)CCOC(=O)c1cccnc1Nc1cccc(C(F)(F)F)c1
result: approximately 200 times
//
test smiles: CCN(CC)CCOC(=O)c1ccccc1Nc1cccc(C(F)(F)F)c1
result: approximately 200 times
//
test smiles: CCN(CC)CCOC(=O)c1ccccc1Nc1cccc(C)c1C
result: approximately 200 times
//
test smiles: CCN(CC)CCOC(=O)c1cccnc1Nc1cccc(C(F)(F)F)c1C
result: approximately 200 times
//
test smiles: CCN(CC)CCOC(=O)c1ccccc1Nc1c(Cl)ccc(C)c1Cl
result: approximately 200 times

----------
body temperature t=180 min. overview
protocol details: Antipyretic activity after sterilized E. coli suspension as a pyrogen
Assay type: in vivo
stated conditions: rats, 100 mg/kg transdermally 2 hours after E. coli pyrogen; t=180 min.

test smiles: CCN(CC)CCOC(=O)c1ccccc1Nc1cccc(C)c1C
body temperature t=180 min.: 36.60

test smiles: CCN(CC)CCOC(=O)c1ccccc1Nc1c(Cl)ccc(C)c1Cl
body temperature t=180 min.: 36.62

test smiles: CCN(CC)CCOC(=O)c1cccnc1Nc1cccc(C(F)(F)F)c1C
body temperature t=180 min.: 36.52

test smiles: CCN(CC)CCOC(=O)c1ccccc1Nc1cccc(C(F)(F)F)c1
body temperature t=180 min.: 36.65

test smiles: CCN(CC)CCOC(=O)c1cccnc1Nc1cccc(C(F)(F)F)c1
body temperature t=180 min.: 36.70

----------
LD50 overview
protocol details: Acute toxicity, LD50 orally
stated conditions: mouse, in vivo, po; orally in mice; prodrugs
From the text: The acute toxicity of the prodrugs was investigated.

test smiles: CCN(CC)CCOC(=O)c1ccccc1Nc1c(Cl)ccc(C)c1Cl
uom: mg/kg
LD50: 1000
//
test smiles: CCN(CC)CCOC(=O)c1cccnc1Nc1cccc(C(F)(F)F)c1C
uom: mg/kg
LD50: 1100
//
test smiles: CCN(CC)CCOC(=O)c1ccccc1Nc1cccc(C(F)(F)F)c1
uom: mg/kg
LD50: 800
//
test smiles: CCN(CC)CCOC(=O)c1ccccc1Nc1cccc(C)c1C
uom: mg/kg
LD50: 900
//
test smiles: CCN(CC)CCOC(=O)c1cccnc1Nc1cccc(C(F)(F)F)c1
uom: mg/kg
LD50: 750

----------
protocol details: Analgetic activity: acetic acid writhing inhibition
Type: in vivo
stated conditions: mice, 100 mg/kg transdermally 60 minutes before acetic acid solution intraperitoneally; control group 35.0
No. of Writhings overview

test smiles: CCN(CC)CCOC(=O)c1ccccc1Nc1cccc(C)c1C
No. of Writhings: 15.6
//
test smiles: CCN(CC)CCOC(=O)c1cccnc1Nc1cccc(C(F)(F)F)c1
No. of Writhings: 15.2
//
test smiles: CCN(CC)CCOC(=O)c1ccccc1Nc1c(Cl)ccc(C)c1Cl
No. of Writhings: 14.2
//
test smiles: CCN(CC)CCOC(=O)c1ccccc1Nc1cccc(C(F)(F)F)c1
No. of Writhings: 16.1
//
test smiles: CCN(CC)CCOC(=O)c1cccnc1Nc1cccc(C(F)(F)F)c1C
No. of Writhings: 15.7

----------
protocol details: In vitro penetration through human skin in modified Franz cells
Type: in vitro ADME
stated conditions: human skin 360-400 µm; donor 30% solution (prodrugs) or 30% suspension (parent drugs) in 2mL of pH 7.4 phosphate buffer (0.2M)
Mark true for Apparent flux values under 2 mg/cm^2/h, false if at or over.

test smiles: CCN(CC)CCOC(=O)c1ccccc1Nc1cccc(C)c1C
class name: false
//
test smiles: CCN(CC)CCOC(=O)c1cccnc1Nc1cccc(C(F)(F)F)c1C
class name: true
//
test smiles: CCN(CC)CCOC(=O)c1ccccc1Nc1cccc(C(F)(F)F)c1
class name: false
//
test smiles: CCN(CC)CCOC(=O)c1cccnc1Nc1cccc(C(F)(F)F)c1
class name: true
